Target: human cloned 5-HT2C receptor, expressed in CHO cells (Homo sapiens)
Construct: expressed in transfected cells; host or cells: CHO cells
Sequence (P28335 33-458): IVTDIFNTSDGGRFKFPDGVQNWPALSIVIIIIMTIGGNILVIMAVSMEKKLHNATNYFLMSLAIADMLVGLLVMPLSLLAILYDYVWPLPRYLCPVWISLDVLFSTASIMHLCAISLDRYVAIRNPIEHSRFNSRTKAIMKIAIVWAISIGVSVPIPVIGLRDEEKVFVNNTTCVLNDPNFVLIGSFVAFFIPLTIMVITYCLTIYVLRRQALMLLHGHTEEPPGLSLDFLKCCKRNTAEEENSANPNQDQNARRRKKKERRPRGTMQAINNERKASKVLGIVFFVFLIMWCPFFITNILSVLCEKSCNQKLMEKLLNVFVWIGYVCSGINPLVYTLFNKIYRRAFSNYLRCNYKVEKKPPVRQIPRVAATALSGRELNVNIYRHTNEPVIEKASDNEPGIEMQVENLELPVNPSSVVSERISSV
Assay: In vitro radioligand binding affinity for 5-HT2C receptor ([3H]mesulergine)
Catalogue of IC50 readings, one per entry.
Record the value in nM, omitting the unit from your answer.

### Prompt # lookup: IC50 of Fc1ccc2c(c1)[C@H]1O[C@@H](CN3CCN(Cc4ccc(C(F)(F)F)cc4)CC3)C[C@@H]1c1ccccc1C2
### Response 302

### Prompt # lookup: IC50 of Cc1ccccc1CN1CCN(C[C@H]2C[C@@H]3c4ccccc4Cc4ccc(F)cc4[C@H]3O2)CC1
### Response 105

### Prompt # lookup: IC50 of Fc1ccc(CN2CCN(C[C@H]3C[C@@H]4c5ccccc5Cc5ccc(F)cc5[C@H]4O3)CC2)cc1
### Response 129

### Prompt # lookup: IC50 of Fc1ccc2c(c1)[C@H]1O[C@@H](CN3CCN(Cc4ccc(Cl)cc4)CC3)C[C@@H]1c1ccccc1C2
### Response 77.6

### Prompt # lookup: IC50 of Fc1ccc2c(c1)[C@H]1O[C@@H](CN3CCN(Cc4ccccc4)CC3)C[C@@H]1c1ccccc1C2
### Response 45.7

Taken from patent US20080214572A1.
